- Target Under Test: UniProtKB Q9HBA0
- Protocol: Test Example 3: measurement of TRPV4 inhibitory activity (Fluo-3, FDSS 3000, 4α-PDD)
- Assay type: cell-based
- Test Conditions: hTRPV4/CHO cells, calculated from IC50 and 4α-PDD EC50
Endpoint Label: Ki

1. Cc1c(C(=O)Nc2cccc(C(F)(F)F)c2)cc(-c2ccccc2)n1CCCN(C)c1ccccc1 [Compound I-012]
1.14 µM
2. Cc1c(C(=O)Nc2cccc(C(F)(F)F)c2)cc(-c2cccnc2)n1CCCN1CCOCC1 [Compound I-021]
0.379 µM
3. CC(=O)N1CCN(CCCn2c(-c3ccccc3)cc(C(=O)Nc3cccc(C(F)(F)F)c3)c2C)CC1 [Compound I-015]
1.44 µM
4. CCOC(=O)Cc1csc(NC(=O)c2cc(-c3ccccc3)n(CCCN3CCOCC3)c2C)n1 [Compound I-005]
1.7 µM
5. Cc1c(C(=O)Nc2cccc(C(F)(F)F)c2)cc(-c2ccccc2)n1CCCN(C)C(=O)C(Cl)(Cl)Cl [Compound I-064]
0.713 µM
6. Cc1c(C(=O)Nc2cccc(C(F)(F)F)c2)cc(-c2ccccc2)n1CCCN(C)C(=O)c1csc(-c2cccs2)n1 [Compound I-062]
1.39 µM
7. Cc1c(C(=O)Nc2cccc(C(F)(F)F)c2)cc(-c2ccccc2)n1CCCN(C)C(=O)C(=O)c1c[nH]c2ccccc12 [Compound I-067]
2.37 µM

###

- Target Under Test: human TRPV4 (Homo sapiens (Human))
- Sequence (Q9HBA0 whole entry): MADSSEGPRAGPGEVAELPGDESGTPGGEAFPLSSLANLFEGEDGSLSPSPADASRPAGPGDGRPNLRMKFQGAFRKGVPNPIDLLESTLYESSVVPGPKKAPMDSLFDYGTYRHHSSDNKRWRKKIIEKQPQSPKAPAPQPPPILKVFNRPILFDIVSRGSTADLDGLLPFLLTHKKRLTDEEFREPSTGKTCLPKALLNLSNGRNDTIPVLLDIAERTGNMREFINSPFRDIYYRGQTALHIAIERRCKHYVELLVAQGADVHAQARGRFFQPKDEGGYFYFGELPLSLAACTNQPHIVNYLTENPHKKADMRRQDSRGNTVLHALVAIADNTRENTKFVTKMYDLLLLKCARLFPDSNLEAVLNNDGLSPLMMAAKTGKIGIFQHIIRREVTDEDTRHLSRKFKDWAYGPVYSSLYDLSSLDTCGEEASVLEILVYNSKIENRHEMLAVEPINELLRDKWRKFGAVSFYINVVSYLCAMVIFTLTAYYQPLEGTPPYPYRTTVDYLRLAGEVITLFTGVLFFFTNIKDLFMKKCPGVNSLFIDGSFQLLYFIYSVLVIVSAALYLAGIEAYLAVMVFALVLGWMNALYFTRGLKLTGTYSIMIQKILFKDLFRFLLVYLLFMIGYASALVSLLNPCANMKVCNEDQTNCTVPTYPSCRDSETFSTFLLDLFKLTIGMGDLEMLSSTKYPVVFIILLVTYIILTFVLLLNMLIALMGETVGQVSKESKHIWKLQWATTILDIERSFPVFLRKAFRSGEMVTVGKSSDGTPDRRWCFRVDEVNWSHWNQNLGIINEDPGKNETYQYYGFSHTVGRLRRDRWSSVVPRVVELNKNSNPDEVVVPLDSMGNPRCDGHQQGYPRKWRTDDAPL
- Protocol: Test Example 1: measurement of TRPV4 inhibitory activity (Fluo 4-AM, FLIPR TETRA, 4α-PDD 1 μmol/L)
- Assay type: cell-based
- Test Conditions: hTRPV4/CHO cells, 4α-PDD 1 μmol/L
Entry class follows IC50: one (below 2 µM), two (2 µM to below 6 µM), three (6 µM or more)

1) Cc1c(C(=O)Nc2cccc(C(F)(F)F)c2)cc(C(C)(C)C)n1C1CCN(CCO)CC1 [Compound I-110]
three
2) O=C(Nc1cccc(C(F)(F)F)c1)c1cnc(-c2ccccc2)c(CCCN2CCOCC2)c1 [Compound I-088]
two
3) Cc1c(-c2nc3ccccc3[nH]2)cc(C(C)(C)C)n1CCCN1CCNCC1 [Compound I-128]
two
4) COCCCn1c(-c2ccccc2)cc(C(=O)Nc2cccc(C(F)(F)F)c2)c1C [Compound I-010]
one
5) Cc1c(NS(=O)(=O)c2cccc(C(F)(F)F)c2)cc(-c2ccccc2)n1CCCN1CCOCC1 [Compound I-080]
three
6) Cc1c(C(=O)Nc2cccc(C(F)(F)F)c2)cc(C(C)(C)C)n1CCC(=O)N1CCNCC1 [Compound I-093]
one
7) Cc1c(C(=O)Nc2cccc(C(F)(F)F)c2)cc(-c2ccccc2)n1CCCN(C)C(=O)c1ccno1 [Compound I-063]
one
8) O=C(Nc1cccc(C(F)(F)F)c1)c1cc(-c2ccccc2)nn1CCCN1CCOCC1 [Compound I-085]
one
9) Cc1c(NC(=O)Nc2cccc(C(F)(F)F)c2)cc(-c2ccccc2)n1CCCN1CCOCC1 [Compound I-081]
two
10) Cc1c(-c2nc3ccccc3[nH]2)cc(C(C)(C)C)n1CCCN1CCOCC1 [Compound I-127]
two
11) Cc1c(S(=O)(=O)Nc2cccc(C(F)(F)F)c2)cc(C(C)(C)C)n1CCCN1CCOCC1 [Compound I-118]
three
12) Cc1c(C(=O)Nc2ccccc2)cc(-c2ccccc2)n1CCCN1CCOCC1 [Compound I-009]
one
13) Cc1c(C(=O)Nc2cccc(C(F)(F)F)c2)cc(C(C)(C)C)n1C1CCN(C)CC1 [Compound I-106]
two
14) Cc1c(C(=O)Nc2cccc(C(F)(F)F)c2)cc(C2CCCCC2)n1CCCN1CCOCC1 [Compound I-072]
one
